- STUDY_TARGET: SHIP2-SH2 Q107A (Homo sapiens, UniProt O15357, Q107A)
- Construct: The SHIP2 SH2 domain (hereafter represented by SHIP2-SH2); made in house
- Sequence (O15357 21-117 Q107A limits assumed): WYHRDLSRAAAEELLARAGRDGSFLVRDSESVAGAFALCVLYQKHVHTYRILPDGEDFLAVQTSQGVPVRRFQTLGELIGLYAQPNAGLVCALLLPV
- ASSAY_NAME: Fluorescence polarization binding, SHIP2-SH2 mutant Q107A
- CONDITION_NOTES: FP assay; FAM-labeled 13-mer phosphopeptide 100 nM; pH 7.5; n = 3 averaged; ± standard error of fitting; SEM; read-out: dissociation constant (KD) for SHIP2-SH2 Q107A
ENDPOINT_LABEL: pKd
API: returns pKd as number; meaning -log10 of concentration in mol/L.

Challenge: What value of pKd has been recorded for this entry: CC[C@H](C)[C@H](NC(=O)[C@@H](NC(=O)[C@H](C)NC(=O)[C@H](Cc1ccc(OP(=O)(O)O)cc1)NC(=O)[C@@H](NC(=O)[C@@H]1CCCN1C(=O)[C@H](CCC(=O)O)NC(=O)[C@@H]1CCCN1C(=O)[C@@H](N)CO)[C@@H](C)CC)[C@@H](C)O)C(=O)N[C@@H](CC(=O)O)C(=O)N[C@@H](Cc1ccccc1)C(=O)N[C@@H](CC(=O)O)C(=O)N[C@@H](CCC(=O)O)C(=O)O [EPIYA-D]
Response given: 5.46
